# system-under-test: pooled human IgG
reported-property: Enzyme Activity Endpoint Assay (purified): Fab'2 (ng/µL)

protein	observed-result
PRT-157 (protein) MANQEIRYSEVTPYHVTSVWTKGVTPPEDFTQGEDVFHAPYKANQGWYDITKTFNGKDDLLCGAATAGNMLHWWFDQNKDQIKRYLEEHPEKQKINFNGEQMFDVKEAIDTKNHQLDSKLFEYFKEKAFPYLSTKHLGVFPDHVIDMFINGYRLSLTNHGPTPVKEGSKDPRGGIFDAVFTRGDQSKLLTSRHDFKEKNLKEISDLIKKELTEGKALGLSHTYANVRINHVINLWGADFDSNGNLKAIYVTDSDSNASIGMKKYFVGVNSAGKVAISAKEIKEDNIGAQVLGLFTLSTGQDSWNQTN	806
PRT-237 (protein) MEVVEVWPYGQNPNGKTEILSQTEDSESLQRLRDIEDFQAEKKMQNVVYTKWLDGVDVKDHDFRKIVDGNIEYYATPLLNGRGFYDINKDFNRDSDKCAAAVAANMFHYWLDINRDNVDRFLRQNPEKHGIIELPDGQLKLSDFLNTYESDHGYRDKSKLFDFISNNFNGPVWTDKLLDNYINGYAYNYKYGRTIEDPTKNTSKINFFKEVFNEKILTNNHSIRNQNEFSVLLSEALYTGKAIGLSYGPAGLRHSLGHIISVWGADLDADGNVVAIYVTDSDDKKLTIGDERVGLKRYKISTDDENRLRLTAYEETHNTGGQIRGLWTLDTGKYAWADYFDKTEQTGTDQAEQLEHHHHHH	828
PRT-141 (protein) MRNATEAYAKEVPHQITSVWTKGVTPLTPEQFRYNNEDVIHAPYLAHQGWYDITKAFDGKDNLLCGAATAGNMLHWWFDQNKTEIEAYLSKHPEKQKIIFNNQELFDLKAAIDTKDSQTNSQLFNYFRDKAFPNLSARQLGVMPDLVLDMFINGYYLNVFKTQSTDVNRPYQDKDKRGGIFDAVFTRGDQTTLLTARHDLKNKGLNDISTIIKQELTEGRALALSHTYANVSISHVINLWGADFNAEGNLEAIYVTDSDANASIGMKKYFVGINAAGHVAISAKKIEGENIGAQVLGLFTLSSGKDIWQKLS	846
PRT-152 (protein) MANQEIRYSEVTPYHVTSVWTKGVTPPANFTQGEDVFHAPYVANQGWYDITKTFNGKDDLLCGAATAGNMLHWWFDQNKTQIERYLKKHPEKQKINFNGEQMFDVKEAIDTKNHQLDSKLFEYFKEKAFPYLSTKHLGVFPDHVIDMFINGYRLSLTNHGPTPVKEGSKDPRGGIFDAVFTRGDQSKLLTSRHDFKEKNLKEISDLIKKELTEGKALGLSHTYANVRINHVINLWGADFDSNGNLKAIYVTDSDSNASIGMKKYFVGVNSAGKVAISAKEIKEDNIGAQVLGLFTLSTGKDSWEKTN	614

Each recorded value in this set is attributed to patent US20250027068.
